So I've got a bunch of variants here, and I need their polymerase ribozyme fitness (log ratio) values.
B1: TPR 5TU (parent)
chain: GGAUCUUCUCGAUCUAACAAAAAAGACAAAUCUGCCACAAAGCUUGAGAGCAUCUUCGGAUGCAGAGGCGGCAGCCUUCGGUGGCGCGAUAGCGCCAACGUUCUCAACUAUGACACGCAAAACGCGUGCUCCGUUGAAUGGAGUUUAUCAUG

- Variants of: B1
- PROTOCOL SUMMARY: polymerase ribozyme fitness, log enrichment relative to wild type (log ratio); higher = more active; in vitro selection for triplet polymerase activity
Fewer inactive variants are shown than the library holds.
Give bare numbers.

A23G G50C ... -4
G11A U55A ... -1.11
A12U A47G C118G ... -1.11
C14U G84A ... -1.56
G80C C93G ... -4.2
A23G C85U ... -2.38
U127G G140A ... -4.15
C85U U145C ... -0.732

Hi there! I need polymerase ribozyme fitness (log ratio) for each item below, if you can.
1. A37U C79U C116A
2. C18U G86U
3. A12C A52C C54U C96A

1. -4.15
2. -2.18
3. -3.95

Look up polymerase ribozyme fitness (log ratio) for the entries below, preserving their order.
1. A110G C149G
2. A40C C93U
3. C10G C75U
4. G86U C99G
5. G59C C75U
6. G48C C85U

-3.83
0.422
-3.87
-3.67
-1.52
-1.95
